# Assay target: plasmin (Homo sapiens)
# Sequence (P00747 97-580 limits assumed): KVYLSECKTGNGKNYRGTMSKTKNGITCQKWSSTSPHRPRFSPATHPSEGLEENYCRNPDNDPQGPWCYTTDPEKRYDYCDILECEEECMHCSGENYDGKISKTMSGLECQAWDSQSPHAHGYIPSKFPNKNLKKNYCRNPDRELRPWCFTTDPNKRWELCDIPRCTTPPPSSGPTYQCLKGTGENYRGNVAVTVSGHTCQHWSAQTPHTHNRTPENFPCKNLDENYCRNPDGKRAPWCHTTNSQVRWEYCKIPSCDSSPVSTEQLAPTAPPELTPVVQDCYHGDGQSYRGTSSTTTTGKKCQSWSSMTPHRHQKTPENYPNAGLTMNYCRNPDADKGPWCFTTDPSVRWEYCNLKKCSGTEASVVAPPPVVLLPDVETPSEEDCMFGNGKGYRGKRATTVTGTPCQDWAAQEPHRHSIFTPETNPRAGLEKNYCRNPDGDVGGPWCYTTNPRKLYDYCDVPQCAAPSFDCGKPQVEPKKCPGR
# Sequence (P00747 581-810 limits assumed): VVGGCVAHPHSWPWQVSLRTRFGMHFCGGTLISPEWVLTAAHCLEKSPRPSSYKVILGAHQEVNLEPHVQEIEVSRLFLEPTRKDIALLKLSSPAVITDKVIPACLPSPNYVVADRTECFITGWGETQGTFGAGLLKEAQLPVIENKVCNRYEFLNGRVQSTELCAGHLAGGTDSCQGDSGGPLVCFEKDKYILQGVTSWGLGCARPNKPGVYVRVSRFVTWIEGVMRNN
# Procedure details: Plasmin inhibition assay with chromogenic substrate S-2251 (Dixon plot, Cornish-Bowden plot)
# Format: biochemical
# Condition notes: plasmin
Listing of entries alongside the reported rpAMB (KiAMB/Kihetero).

Answered cases to consult:
N=C(N)c1ccc(CNC(=O)CCOCCOCCOCCOCCOCCOCCOCCOCCNC(=O)[C@H]2CC[C@H](CN)CC2)cc1
11
N=C(N)c1ccc(CNC(=O)CCOCCOCCOCCOCCNC(=O)[C@H]2CC[C@H](CN)CC2)cc1
26
N=C(N)c1ccc(CNC(=O)CCOCCOCCOCCOCCOCCOCCOCCOCCOCCOCCOCCOCCOCCOCCOCCOCCOCCOCCOCCOCCOCCOCCOCCOCCOCCOCCOCCOCCOCCOCCOCCOCCOCCOCCOCCOCCNC(=O)[C@H]2CC[C@H](CN)CC2)cc1
14

Now turn to the next compound.
Exercise: Find the measured rpAMB (KiAMB/Kihetero): item "N=C(N)c1ccc(CNC(=O)CCOCCOCCOCCOCCOCCOCCOCCOCCOCCOCCOCCOCCNC(=O)[C@H]2CC[C@H](CN)CC2)cc1" , target or system plasmin (Homo sapiens).
Key: 5
